Target: NADPH oxidase 5 (Homo sapiens) (UniProt Q96PH1)
Sequence (Q96PH1 whole entry, looked up): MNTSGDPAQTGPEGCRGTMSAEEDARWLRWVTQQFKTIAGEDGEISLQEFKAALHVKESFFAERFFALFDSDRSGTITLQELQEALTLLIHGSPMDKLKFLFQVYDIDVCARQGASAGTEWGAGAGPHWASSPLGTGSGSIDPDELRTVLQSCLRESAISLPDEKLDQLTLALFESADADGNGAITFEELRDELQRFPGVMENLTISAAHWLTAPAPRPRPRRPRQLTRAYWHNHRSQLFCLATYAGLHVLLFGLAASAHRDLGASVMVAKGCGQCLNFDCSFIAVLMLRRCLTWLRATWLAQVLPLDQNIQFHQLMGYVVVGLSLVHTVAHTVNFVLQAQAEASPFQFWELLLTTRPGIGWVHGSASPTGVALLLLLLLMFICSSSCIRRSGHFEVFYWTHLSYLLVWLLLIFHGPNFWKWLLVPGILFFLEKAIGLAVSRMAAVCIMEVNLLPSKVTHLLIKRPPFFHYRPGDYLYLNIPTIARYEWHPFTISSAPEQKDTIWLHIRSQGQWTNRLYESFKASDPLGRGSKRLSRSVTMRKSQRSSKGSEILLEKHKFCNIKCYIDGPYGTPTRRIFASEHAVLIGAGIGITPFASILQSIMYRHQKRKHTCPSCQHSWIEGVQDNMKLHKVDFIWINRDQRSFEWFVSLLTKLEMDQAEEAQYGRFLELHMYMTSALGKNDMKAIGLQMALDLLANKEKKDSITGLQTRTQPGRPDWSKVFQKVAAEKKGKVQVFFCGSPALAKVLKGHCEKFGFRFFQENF
Test: NOX5-dependent H2O2 signal modulators, primary screen, NOX inhibitor project, cell-based, HEK293-NOX5, Amplex Red fluorescence (AID 1161)
Details: HEK293-NOX5, ionomycin, 45 min, higher = more signal
# z-score >= -0.1 gives Met, anything below gives Not met

* O=C(CS)NCCCCCCNC(=O)[C@H]1C[C@H]2C(=O)N3CCC[C@H]3C(=O)N2[C@H]1c1cccc(OCCO)c1 | Met
* CS(=O)(=O)CCOC(=O)C1=CC(c2ccc(CO)cc2)=CC(C2CC2)N(Cc2cc3c(cc2Br)OCO3)C=C1C(=O)OCCS(C)(=O)=O (centres undefined) | Not met

We next turn to a different compound, shown below.
Req: I'd appreciate it if you could say whether "CN(C)CCCCNC(=O)[C@H]1C[C@H]2C(=O)N[C@@H](Cc3ccccc3)C(=O)N2[C@H]1c1ccc(O)cc1" has z-score at least equal to -0.1.
Resp: Not met

###

Biological target: Torsin-1A (Homo sapiens)
Assay: small-molecule binders of mutant TOR1A in lysate, primary screen, cell lysate, small-molecule microarray, COS7 lysate, 635/667 nm fluorescence (AID 1150);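 further: score pools 667 nm emission and signal to noise measuring lysate protein binding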
Settings: COS7 hTOR1A mutant lysate, 635 nm fluorescence, higher = more signal
propertyLabel: composite z-score

Worked cases, answers included:
• COCCOC(=O)N1C(=O)[C@@]2(c3cc(C#CCC(C(=O)OC)C(=O)OC)ccc31)[C@H](c1ccccc1OCCO)N1[C@H](c3ccccc3)[C@H](c3ccccc3)OC(=O)[C@H]1[C@@H]2C(N)=O = 0.689
• COCCOC(=O)N1C(=O)[C@@]2(c3cc(C#CCC(C(=O)OC)C(=O)OC)ccc31)[C@H](C(=O)N1CCCCCCC1)[C@H]1C(=O)O[C@H](c3ccccc3)[C@H](c3ccccc3)N1[C@@H]2c1ccc(OCCO)cc1 = 1.87
• CCCCCN1CC=CC23O[C@@H]4/C=C\CCCOC(=O)C4[C@H]2C(=O)N(CCCCCCO)[C@@H]3C1=O (some centres undefined) = 0.474

Req: Identify the reported composite z-score for the following entry. O=C1C2C=CC(C(O)c3cccs3)N(Nc3ccccc3F)C2C(=O)N1c1ccccc1 (centres undefined)
Resp: 0.605

Req: Identify the reported composite z-score for the following entry. C=CCC(OC(C)=O)[C@@H]1[C@@H](N(Cc2ccc(-c3ccccc3)cc2)C(=O)Cc2ccc(F)cc2)c2cc(OCCCO)ccc2N1C(=O)c1ccc2ccccc2n1 (some centres undefined)
Resp: 0.0886

Req: Identify the reported composite z-score for the following entry. COc1ccc(C(O)C2C=CC3C(=O)N(C)C(=O)C3N2Nc2ccccc2)cc1OCc1ccccc1 (centres undefined)
Resp: 0.992

###

Experiment: yeast growth modulation, basal conditions, primary screen, YJM789 clinical isolate, OD600, 24 h (AID 1089);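 further: growth of clinical yeast isolate S. cerevisiae YJM 789 seeded 1000 cells per well; test concentration not given here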
Conditions: S. cerevisiae YJM789 growth, higher = more signal, called active from +8 up or from −8 down
propertyLabel: z-score
Form field (numeric): enter value without unit.

* COCCCNC(=O)[C@@]1(c2ccc([N+](=O)[O-])cc2)CC(=O)N(CC23CC4CC(CC(C4)C2)C3)[C@@H]1c1ccc(CO)cc1 | 0.38

Req: Identify the reported z-score for the following entry. "CC(C)C(=C=CC[C@H](O)c1ccccc1OCCO)C[C@H](O)c1ccccn1"
Resp: 0.241

Req: Identify the reported z-score for the following entry. "COCCOC(=O)N1C(=O)[C@@]2(c3ccccc31)[C@H](C(=O)Nc1nc3ccccc3s1)[C@H]1C(=O)O[C@H](c3ccccc3)[C@H](c3ccccc3)N1[C@@H]2c1ccc(OCCO)cc1"
Resp: 1.13

Req: Identify the reported z-score for the following entry. "COCCOC(=O)N1C(=O)[C@@]2(c3cc(C#CCC(C(=O)OC)C(=O)OC)ccc31)[C@H](C(=O)N1CCCCCCC1)[C@H]1C(=O)O[C@H](c3ccccc3)[C@H](c3ccccc3)N1[C@@H]2c1ccc(OCCO)cc1"
Resp: 1.47

Req: Identify the reported z-score for the following entry. O=C(OCCF)C1=CCC(c2cccc(Cl)c2)O1 (stereo not given)
Resp: -3.17

###

Test: COS7 lysate on small-molecule microarray, probe aHis, 635 nm (AID 1123);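 further: z-score combines 667nm fluorescence intensity with signal-to-noise per printed compound spot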
Settings: COS7 cell lysate, fluorescence, higher = more signal
propertyLabel: composite z-score
Form field (numeric): enter value without unit.

Worked cases, answers included:
• O=C1C2C=CC(C(O)c3cccs3)N(Nc3ccccc3F)C2C(=O)N1c1ccccc1 (configuration not stated) = 1.55
• COC(=O)[C@@]1(Cc2ccc(OC)cc2)[C@H]2c3cc(C(=O)N4CCCC4)n(CCc4c[nH]c5cc(F)ccc45)c3C[C@H]2CN1C(=O)c1ccccc1 = 3.24
• CCOC(=O)C1=CCC(C(C)(C)C)N(S(=O)(=O)c2ccc(C)cc2)C1 (configuration not stated) = 2.45
• CC(C)CNC(=O)[C@@]1(c2ccc([N+](=O)[O-])cc2)CC(=O)N(CC23CC4CC(CC(C4)C2)C3)[C@@H]1c1ccc(CO)cc1I = 2.03
• CS(=O)(=O)CCOC(=O)C1=CC(CCCO)=CC(c2cccs2)N(Cc2cc3c(cc2Br)OCO3)C=C1C(=O)OCCS(C)(=O)=O (configuration not stated) = 1.64

Req: Identify the reported composite z-score for the following entry. "COc1cc(CO)ccc1OC(C)=O"
Resp: 0.329

Req: Identify the reported composite z-score for the following entry. CC1CC/C=C\[C@H]2OC34C=CCN(Cc5ccccc5)C(=O)[C@H]3N(CCCCCO)C(=O)[C@@H]4C2C(=O)O1 (some centres not stated)
Resp: -0.351

Req: Identify the reported composite z-score for the following entry. "C[C@]1(C(=O)NCc2ccccc2)c2ccccc2C(=O)N(Cc2cc(F)cc(C(F)(F)F)c2)[C@H]1c1ccc(CO)cc1"
Resp: 0.157

Req: Identify the reported composite z-score for the following entry. "O=C1C[C@@](C(=O)NC2CC2)(c2ccc([N+](=O)[O-])cc2)[C@@H](c2ccc(CO)cc2)N1CC12CC3CC(CC(C3)C1)C2"
Resp: 0.681

Req: Identify the reported composite z-score for the following entry. COC(=O)c1ccc(C(O)C2C=CC3C(=O)N(c4ccccc4)C(=O)C3N2Nc2ccc(C#N)cc2)o1 (configuration not stated)
Resp: 2.85

Req: Identify the reported composite z-score for the following entry. "NCCCCCNC(=O)[C@H]1C[C@H]2C(=O)NCC(=O)N2[C@H]1c1cccc(OCCO)c1"
Resp: 1.12

Req: Identify the reported composite z-score for the following entry. COc1cccc(C(=O)O[C@H]2CC[C@]3(C)C4=C(CCC3C2(C)C)[C@]2(C)CC[C@H]([C@H](C)CCCC(C)C)[C@@]2(C)CC4)c1 (some centres not stated)
Resp: 0.279

###

Target: Calmodulin-1 (Homo sapiens)
Experiment: CALM1 binders on microarrays, EGTA buffer, profiling panel, biochemical, small-molecule microarray, Cy5-labelled CALM1 (AID 1111);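 further: labelled calmodulin applied in Tris saline Tween buffer holding calcium plus EGTA and DTT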
Details: Cy5-CALM1 binding fluorescence, higher = more signal
propertyLabel: composite z-score
Form field (numeric): enter value without unit.

Worked cases, answers included:
• CC(C)=CCCC(C)=CC(O)C1C=CC2C(=O)N(c3ccccc3)C(=O)C2N1Nc1ccccc1 (centres undefined) = 2.23
• O=C1C2C=CC(C(O)c3ccc(B(O)O)cc3)N(Nc3ccccc3)C2C(=O)N1c1ccccc1 (centres undefined) = 0.883
• O=C1OCCC=C[C@H]2OC34C=CCN(Cc5ccccc5)C(=O)[C@H]3N(CCCCCCO)C(=O)[C@@H]4C12 (some centres undefined) = -0.214

Req: Identify the reported composite z-score for the following entry. C=CCC(OC(C)=O)[C@@H]1[C@@H](N(Cc2ccc(-c3cccc(C(F)(F)F)c3)o2)C(=O)c2ccc(C)cc2)c2cc(OCCCO)ccc2N1C(=O)c1ccc(-c2ccccc2)cc1 (some centres undefined)
Resp: -0.201

###

We begin with a simple list: items and their reported z-score.
Test: A549 lung cancer cell viability effects, profiling panel, resazurin fluorescence, 24 h, PK04 Diversity Set (AID 1171); further: test concentration not given here
Details: higher = more signal, called active from +8 up or from −8 down
Form field (numeric): enter value without unit.

Worked cases, answers included:
• C=CC[C@@]1(C(=O)N2CCOCC2)N=C(c2ccc(OCCCO)cc2)O[C@@H]1c1ccccc1N=[N+]=[N-] = -0.915
• C=CCOC(=O)[C@@H]1[C@H]2C(=O)O[C@H](c3ccccc3)[C@H](c3ccccc3)N2[C@H](c2ccc(OCCOC(=O)[C@@H]3C[C@@H]4C(=O)N[C@@H](Cc5ccccc5)C(=O)N4[C@@H]3c3cccc(OCCO)c3)cc2)[C@@]12C(=O)Nc1ccc(I)cc12 = 0.789
• COC(=O)[C@@]1(Cc2ccccc2N=[N+]=[N-])COC(c2ccc(OCCCO)cc2)=N1 = 0.468
• C=CCC(OC(C)=O)[C@@H]1[C@@H](N(Cc2cccc3ccccc23)C(=O)c2cccc3ccccc23)c2cc(OCCCO)ccc2N1C(=O)c1ccc2ccccc2n1 (stereo not given in full) = 0.0076

Now let's try a different one.
Req: Identify the reported z-score for the following entry. "O=c1cccc(CCc2ccccc2)o1"
Resp: -0.574

Reference source for all entries: PubChem BioAssay
